Each record here notes measured pEC50.
- Study Target: Hepatocyte Growth Factor (HGF), human (human, UniProt P14210 32-728)
- Sequence (P14210 32-728): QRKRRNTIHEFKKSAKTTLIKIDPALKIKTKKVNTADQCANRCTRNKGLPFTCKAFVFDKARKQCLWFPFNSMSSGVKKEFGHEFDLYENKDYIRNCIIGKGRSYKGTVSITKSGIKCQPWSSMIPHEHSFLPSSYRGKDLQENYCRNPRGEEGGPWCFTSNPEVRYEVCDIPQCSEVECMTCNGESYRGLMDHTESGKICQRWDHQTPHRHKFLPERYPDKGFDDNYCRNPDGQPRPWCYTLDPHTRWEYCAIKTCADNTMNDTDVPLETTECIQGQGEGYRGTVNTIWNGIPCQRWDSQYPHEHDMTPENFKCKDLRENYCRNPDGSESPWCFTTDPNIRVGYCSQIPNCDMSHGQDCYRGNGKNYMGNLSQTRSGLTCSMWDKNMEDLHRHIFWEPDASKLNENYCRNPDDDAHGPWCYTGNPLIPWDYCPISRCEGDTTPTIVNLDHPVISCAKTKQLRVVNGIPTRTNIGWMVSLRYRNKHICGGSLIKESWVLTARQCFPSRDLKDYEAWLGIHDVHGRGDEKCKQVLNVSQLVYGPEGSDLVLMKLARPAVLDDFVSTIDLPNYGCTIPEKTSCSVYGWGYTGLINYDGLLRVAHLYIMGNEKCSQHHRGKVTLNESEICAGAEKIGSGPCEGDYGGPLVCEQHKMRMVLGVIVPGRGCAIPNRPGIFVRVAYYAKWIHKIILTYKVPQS
- Assay Protocol: ELISA
Keep in mind that pEC50 stands for -log10 of concentration in molar terms.

1) HC 3/SLC 6 (antibody) chain 1: GQGTLVTVSSASTQPVLHQPPAMSSALGTTIRLTCTLRNDHDIGVYSVYWYQQRPGHPPRFLLRYFSQSDKSQGPQVPPRFSGSKDVARNRGYLSISELQPEDEAMYYCAMGARSRCWPRGFQSKHNSVTHVFGSGTQLTVLSQPKATPSVTLFPPSSEELQANKATLVCLMNDFYPGILTVTWKADGTPITQGVEMTTPSKQSNNKYAASSYLSLTPEQWRSRRSYSCQVMHEGSTVEKTVAPAECS chain 2: MSWAPVLLMLFVYCTGCGPQPVLHQPPAMSSALGTTIRLTCTLRNDHDIGVYSVYWYQQRPGHPPRFLLRYFSQSDKSQGPQVPPRFSGSKDVARNRGYLSISVTHVFGSGTQLTVLSQPKATQVQLVQ	10.24
2) HC 7/SLC 6 (antibody) chain 1: GQGTLVTVSSASTKGPSQPVLHQPPAMSSALGTTIRLTCTLRNDHDIGVYSVYWYQQRPGHPPRFLLRYFSQSDKSQGPQVPPRFSGSKDVARNRGYLSISELQPEDEAMYYCAMGARSRCWPRGFQSKHNSVTHVFGSGTQLTVLSQPKATPSVTLFPPSSEELQANKATLVCLMNDFYPGILTVTWKADGTPITQGVEMTTPSKQSNNKYAASSYLSLTPEQWRSRRSYSCQVMHEGSTVEKTVAPAECS chain 2: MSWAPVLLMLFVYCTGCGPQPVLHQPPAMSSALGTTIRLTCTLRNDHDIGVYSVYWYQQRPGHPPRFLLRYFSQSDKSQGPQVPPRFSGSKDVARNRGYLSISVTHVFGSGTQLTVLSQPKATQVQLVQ	10.21
3) HC 10/SLC 8 (antibody) chain 1: GQGTLVTVSSASTKGPSVFPQPVLHQPPAMSSALGTTIRLTCTLRNDHDIGVYSVYWYQQRPGHPPRFLLRYFSQSDKSQGPQVPPRFSGSKDVARNRGYLSISELQPEDEAMYYCAMGARSRCWPRGFQSKHNSVTHVFGSGTQLTVLSQPKATPSVTLFPPSSEELQANKATLVCLMNDFYPGILTVTWKADGTPITQGVEMTTPSKQSNNKYAASSYLSLTPEQWRSRRSYSCQVMHEGSTVEKTVAPAECS chain 2: MSWAPVLLMLFVYCTGCGPQPVLHQPPAMSSALGTTIRLTCTLRNDHDIGVYSVYWYQQRPGHPPRFLLRYFSQSDKSQGPQVPPRFSGSKDVARNRGYLSISVTHVFGSGTQLTVLSQPKATPSQVQLVQ	10.32
4) HC 9/SLC 4 (antibody) chain 1: GQGTLVTVSSASTKGPSVFQPVLHQPPAMSSALGTTIRLTCTLRNDHDIGVYSVYWYQQRPGHPPRFLLRYFSQSDKSQGPQVPPRFSGSKDVARNRGYLSISELQPEDEAMYYCAMGARSRCWPRGFQSKHNSVTHVFGSGTQLTVLSQPKATPSVTLFPPSSEELQANKATLVCLMNDFYPGILTVTWKADGTPITQGVEMTTPSKQSNNKYAASSYLSLTPEQWRSRRSYSCQVMHEGSTVEKTVAPAECS chain 2: MSWAPVLLMLFVYCTGCGPQPVLHQPPAMSSALGTTIRLTCTLRNDHDIGVYSVYWYQQRPGHPPRFLLRYFSQSDKSQGPQVPPRFSGSKDVARNRGYLSISVTHVFGSGTQLTVLSQPKQVQLVQ	10.20
5) HC 7/SLC 9 (antibody) chain 1: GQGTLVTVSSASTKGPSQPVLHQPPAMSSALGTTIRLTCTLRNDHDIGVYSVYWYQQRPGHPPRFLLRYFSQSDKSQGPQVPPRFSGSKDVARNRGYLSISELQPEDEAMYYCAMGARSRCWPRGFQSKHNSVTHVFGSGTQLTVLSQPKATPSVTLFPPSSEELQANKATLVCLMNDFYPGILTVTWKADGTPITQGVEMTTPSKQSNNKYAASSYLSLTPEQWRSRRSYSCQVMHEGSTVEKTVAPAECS chain 2: MSWAPVLLMLFVYCTGCGPQPVLHQPPAMSSALGTTIRLTCTLRNDHDIGVYSVYWYQQRPGHPPRFLLRYFSQSDKSQGPQVPPRFSGSKDVARNRGYLSISVTHVFGSGTQLTVLSQPKATPSVQVQLVQ	10.32

## Task Dear colleague, please send me the reported pEC50 for HC 2/SLC 2 (antibody) chain 1: GQGTLVTVSSASQPVLHQPPAMSSALGTTIRLTCTLRNDHDIGVYSVYWYQQRPGHPPRFLLRYFSQSDKSQGPQVPPRFSGSKDVARNRGYLSISELQPEDEAMYYCAMGARSRCWPRGFQSKHNSVTHVFGSGTQLTVLSQPKATPSVTLFPPSSEELQANKATLVCLMNDFYPGILTVTWKADGTPITQGVEMTTPSKQSNNKYAASSYLSLTPEQWRSRRSYSCQVMHEGSTVEKTVAPAECS chain 2: MSWAPVLLMLFVYCTGCGPQPVLHQPPAMSSALGTTIRLTCTLRNDHDIGVYSVYWYQQRPGHPPRFLLRYFSQSDKSQGPQVPPRFSGSKDVARNRGYLSISVTHVFGSGTQLTVLSQQVQLVQ when you can.
## Result 10.29

## Task Dear colleague, please send me the reported pEC50 for HC 9/SLC 8 (antibody) chain 1: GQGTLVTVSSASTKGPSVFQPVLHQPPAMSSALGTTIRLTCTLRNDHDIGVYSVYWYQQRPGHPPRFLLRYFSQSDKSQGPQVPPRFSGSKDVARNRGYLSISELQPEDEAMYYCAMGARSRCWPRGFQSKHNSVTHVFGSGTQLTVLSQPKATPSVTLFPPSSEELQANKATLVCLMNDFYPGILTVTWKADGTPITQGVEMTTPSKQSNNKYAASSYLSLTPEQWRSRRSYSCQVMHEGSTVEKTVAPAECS chain 2: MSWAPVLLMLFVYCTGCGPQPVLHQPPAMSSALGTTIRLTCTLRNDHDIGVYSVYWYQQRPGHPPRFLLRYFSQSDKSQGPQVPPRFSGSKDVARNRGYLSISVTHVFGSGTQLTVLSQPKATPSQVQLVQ when you can.
## Result 10.21

Sourced from patent US20150045540A1
